molecular target: human opioid δ receptor (Homo sapiens); construct: host or cells: CHO cells; experiment: Opioid receptor function test (Lance Ultra cAMP Kit), δ receptor; type: cell-based; settings: ratio to maximum reaction of control drug SNC80 taken as 100%
Sequence (P41143 whole entry): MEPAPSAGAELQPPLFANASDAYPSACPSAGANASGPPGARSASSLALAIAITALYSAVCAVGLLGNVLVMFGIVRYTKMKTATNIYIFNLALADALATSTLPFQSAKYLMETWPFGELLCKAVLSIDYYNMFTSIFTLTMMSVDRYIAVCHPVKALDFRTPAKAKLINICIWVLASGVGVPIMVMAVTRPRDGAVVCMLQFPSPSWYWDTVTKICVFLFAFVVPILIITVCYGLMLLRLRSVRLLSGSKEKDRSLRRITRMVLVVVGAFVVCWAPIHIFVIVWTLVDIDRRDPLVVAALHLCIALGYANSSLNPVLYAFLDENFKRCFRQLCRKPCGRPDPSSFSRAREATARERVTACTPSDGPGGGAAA
Collected Emax values appear next to each entry.
Readout label: Emax (%)

[[record]]
molecule = "Cn1c(C(=O)N2C[C@H]3C[C@@]45CC[C@@H]2[C@@H]3[C@@]42CCN(CC3CC3)[C@@H]5Cc3ccc(O)cc32)cccc1=O [Example 10]"
readout_label = "Emax"
unit_abbreviation = "%"
observed_result = 74

[[record]]
molecule = "O=C(c1cccc(=O)[nH]1)N1C[C@H]2C[C@@]34CC[C@@H]1[C@@H]2[C@@]31CCN(CC2CC2)[C@@H]4Cc2ccc(O)cc21 [Example 7]"
readout_label = "Emax"
unit_abbreviation = "%"
observed_result = 99

[[record]]
molecule = "Cc1ccc(C(=O)N2C[C@H]3C[C@@]45CC[C@@H]2[C@@H]3[C@@]42CCN(CC3CC3)[C@@H]5Cc3ccc(O)cc32)c(=O)[nH]1 [Example 8]"
readout_label = "Emax"
unit_abbreviation = "%"
observed_result = 70

[[record]]
molecule = "O=C(c1ccc[n+]([O-])c1)N1C[C@H]2C[C@@]34CC[C@@H]1[C@@H]2[C@@]31CCN(CC2CC2)[C@@H]4Cc2ccc(O)cc21 [Example 4]"
readout_label = "Emax"
unit_abbreviation = "%"
observed_result = 86

[[record]]
molecule = "CCn1cc(C(=O)N2C[C@H]3C[C@@]45CC[C@@H]2[C@@H]3[C@@]42CCN(CC3CC3)[C@@H]5Cc3ccc(O)cc32)ccc1=O [Example 28]"
readout_label = "Emax"
unit_abbreviation = "%"
observed_result = 92

[[record]]
molecule = "O=C(c1ccc(=O)[nH]n1)N1C[C@H]2C[C@@]34CC[C@@H]1[C@@H]2[C@@]31CCN(CC2CC2)[C@@H]4Cc2ccc(O)cc21 [Example 16]"
readout_label = "Emax"
unit_abbreviation = "%"
observed_result = 92

[[record]]
molecule = "O=C(c1cc[nH]c(=O)c1)N1C[C@H]2C[C@@]34CC[C@@H]1[C@@H]2[C@@]31CCN(CC2CC2)[C@@H]4Cc2ccc(O)cc21 [Example 11]"
readout_label = "Emax"
unit_abbreviation = "%"
observed_result = 76

[[record]]
molecule = "Cn1cc(C(=O)N2C[C@H]3C[C@@]45CC[C@@H]2[C@@H]3[C@@]42CCN(CC3CC3)[C@@H]5Cc3ccc(O)cc32)ccc1=O [Example 9]"
readout_label = "Emax"
unit_abbreviation = "%"
observed_result = 74


----------
biological target: human opioid μ receptor (Homo sapiens, UniProt P35372); construct: host or cells: CHO cells; experiment: Opioid receptor function test (Lance Ultra cAMP Kit), μ receptor; assay type: cell-based; settings: CHO cells expressing human μ receptor, cAMP, in the presence of forskolin; read-out: μ receptor EC50 value
Sequence (P35372 whole entry): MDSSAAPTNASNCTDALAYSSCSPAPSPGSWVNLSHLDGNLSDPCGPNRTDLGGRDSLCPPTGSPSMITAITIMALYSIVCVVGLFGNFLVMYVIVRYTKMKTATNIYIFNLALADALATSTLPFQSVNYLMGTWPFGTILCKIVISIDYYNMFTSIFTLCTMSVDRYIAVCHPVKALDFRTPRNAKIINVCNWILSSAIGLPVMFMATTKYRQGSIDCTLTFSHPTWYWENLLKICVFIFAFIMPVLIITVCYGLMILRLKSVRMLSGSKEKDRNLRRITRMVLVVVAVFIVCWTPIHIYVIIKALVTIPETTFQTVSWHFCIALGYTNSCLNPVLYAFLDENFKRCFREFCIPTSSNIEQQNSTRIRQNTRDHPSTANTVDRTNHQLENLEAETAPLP
pEC50: −log10 of the molar value.
Readout label: pEC50

[[record]]
smiles_repr = "O=C(c1cc(=O)cc[nH]1)N1C[C@H]2C[C@@]34CC[C@@H]1[C@@H]2[C@@]31CCN(CC2CC2)[C@@H]4Cc2ccc(O)cc21"
observed_result = "< 9.00"

[[record]]
smiles_repr = "O=C(c1ccc(=O)[nH]n1)N1C[C@H]2C[C@@]34CC[C@@H]1[C@@H]2[C@@]31CCN(CC2CC2)[C@@H]4Cc2ccc(O)cc21"
observed_result = "< 9.00"

[[record]]
smiles_repr = "Cn1cc(C(=O)N2C[C@H]3C[C@@]45CC[C@@H]2[C@@H]3[C@@]42CCN(CC3CC3)[C@@H]5Cc3ccc(O)cc32)ccc1=O"
observed_result = "> 9.00"

[[record]]
smiles_repr = "O=C(c1cc[nH]c(=O)c1)N1C[C@H]2C[C@@]34CC[C@@H]1[C@@H]2[C@@]31CCN(CC2CC2)[C@@H]4Cc2ccc(O)cc21"
observed_result = "< 9.00"

[[record]]
smiles_repr = "O=C(c1ccc(=O)[nH]c1)N1C[C@H]2C[C@@]34CC[C@@H]1[C@@H]2[C@@]31CCN(CC2CC2)[C@@H]4Cc2ccc(O)cc21"
observed_result = "< 9.00"

[[record]]
smiles_repr = "O=C(c1cccc(=O)[nH]1)N1C[C@H]2C[C@@]34CC[C@@H]1[C@@H]2[C@@]31CCN(CC2CC2)[C@@H]4Cc2ccc(O)cc21"
observed_result = "< 9.00"

[[record]]
smiles_repr = "O=C(c1cc(=O)cco1)N1C[C@H]2C[C@@]34CC[C@@H]1[C@@H]2[C@@]31CCN(CC2CC2)[C@@H]4Cc2ccc(O)cc21"
observed_result = "< 9.00"

[[record]]
smiles_repr = "O=C(c1ccc[nH]c1=O)N1C[C@H]2C[C@@]34CC[C@@H]1[C@@H]2[C@@]31CCN(CC2CC2)[C@@H]4Cc2ccc(O)cc21"
observed_result = "< 9.00"

[[record]]
smiles_repr = "CCn1cc(C(=O)N2C[C@H]3C[C@@]45CC[C@@H]2[C@@H]3[C@@]42CCN(CC3CC3)[C@@H]5Cc3ccc(O)cc32)ccc1=O"
observed_result = "< 9.00"

[[record]]
smiles_repr = "Cc1ccc(C(=O)N2C[C@H]3C[C@@]45CC[C@@H]2[C@@H]3[C@@]42CCN(CC3CC3)[C@@H]5Cc3ccc(O)cc32)c(=O)[nH]1"
observed_result = "< 9.00"

[[record]]
smiles_repr = "Cn1cccc(C(=O)N2C[C@H]3C[C@@]45CC[C@@H]2[C@@H]3[C@@]42CCN(CC3CC3)[C@@H]5Cc3ccc(O)cc32)c1=O"
observed_result = "< 8.00"

